The reported numbers originate from patent US20240182547A1.

Kd by entry:
# target-or-test-system: DS-Cav1 (RSV F-protein, pre-form, in-house) (respiratory syncytial virus (RSV), UniProt P03420 26-513)
# Sequence (P03420 26-524): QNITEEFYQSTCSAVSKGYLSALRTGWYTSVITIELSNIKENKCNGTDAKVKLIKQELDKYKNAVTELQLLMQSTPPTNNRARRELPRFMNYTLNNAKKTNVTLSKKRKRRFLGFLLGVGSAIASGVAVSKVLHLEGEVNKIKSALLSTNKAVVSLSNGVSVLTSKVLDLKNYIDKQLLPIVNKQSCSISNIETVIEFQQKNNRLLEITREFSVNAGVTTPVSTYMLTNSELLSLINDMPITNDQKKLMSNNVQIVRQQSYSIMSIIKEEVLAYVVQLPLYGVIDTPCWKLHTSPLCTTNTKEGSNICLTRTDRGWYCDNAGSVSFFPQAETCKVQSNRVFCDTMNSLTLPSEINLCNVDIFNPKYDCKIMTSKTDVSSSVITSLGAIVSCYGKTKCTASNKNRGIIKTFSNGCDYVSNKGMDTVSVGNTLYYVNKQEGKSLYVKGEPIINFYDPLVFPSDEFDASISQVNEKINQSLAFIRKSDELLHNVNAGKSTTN
# experimental-details: ELISA, coated DS-Cav1, IgG titrated

binder	Kd
#12m (antibody, V domains shown, Germline-edited (m) form of 4F11, light chain edited; IgG; also called 4F11 (modified)) VH: EVQLVESGGGLVKPGGSLRLSCAGSGFAFSSYTMHWVRQAPGKGLEWVSSITGGSSYLDYAHSVKGRFTISRDNGQNSLFLQMNSLRTEDTAVYYCARDDYGSGSYSNYFDPWGQGTLVTVSS VL: QSVLTQPPSVSGAPGQRVTISCTGSSSNIGAGYDVHWYQQVPGTAPKLLIFGSTNRPSGVPDRFSGSKSGASASLAITGLQTEDEADYYCQSYDRSLSHVFGTGTKVTVLG	~1.82 nM
#15m (antibody, V domains shown, Germline-edited (m) form of 12B11, light chain edited; IgG; also called 12B11 (modified)) VH: EVQLVESGGGVVQPGRSLRLACAASGFTFNSYAMHWVRQAPGKGLEWVSSITGGSSYVDYSASVKGRFTISRDNAQSSLYLQMNSLRAEDTAVYYCARDMYGLGSYYSPNYFDPWGQGTLVTVSS VL: QSVLTQPPSVSGAPGQRVTISCTGSSSNIGAGYDVHWYQQLPGRAPKLLIFANTNRPSGVPDRFSGSKSGTSASLAITGLQAEDEADYYCQSYDSSLSYVFGTGTKVTVLG	~1.2 nM
D25 (antibody, V domains shown) VH: QVQLVQSGAEVKKPGSSVMVSCQASGGPLRNYIINWLRQAPGQGPEWMGGIIPVLGTVHYAPKFQGRVTITADESTDTAYIHLISLRSEDTAMYYCATETALVVSTTYLPHYFDNWGQGTLVTVSS VL: DIQMTQSPSSLSAAVGDRVTITCQASQDIVNYLNWYQQKPGKAPKLLIYVASNLETGVPSRFSGSGSGTDFSLTISSLQPEDVATYYCQQYDNLPLTFGGGTKVEIK	~0.73 nM
